Target: T1, cynomolgus CX3CR1 (cynomolgus monkey (Macaca fascicularis), UniProt P49238 1-355 (human entry))
T1 construct: Overexpressed on CHO K1 cells; also called cyno CX3CR1; cyCX3CR1
T1 chain: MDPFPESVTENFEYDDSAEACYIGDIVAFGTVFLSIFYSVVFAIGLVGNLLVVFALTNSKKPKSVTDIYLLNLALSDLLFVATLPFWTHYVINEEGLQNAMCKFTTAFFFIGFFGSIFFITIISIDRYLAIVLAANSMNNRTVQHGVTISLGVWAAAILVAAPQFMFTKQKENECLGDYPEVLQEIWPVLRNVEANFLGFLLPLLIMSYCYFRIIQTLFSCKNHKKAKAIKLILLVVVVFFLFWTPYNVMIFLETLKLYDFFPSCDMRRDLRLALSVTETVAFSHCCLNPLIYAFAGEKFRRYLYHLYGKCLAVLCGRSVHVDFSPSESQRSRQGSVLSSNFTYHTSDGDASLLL
Experiment: flow cytometry on CHO K1 cyCX3CR1 cells, 30 uM HSA
measurement-type: pEC50
Please report pEC50 as the negative decimal logarithm of the molar concentration, giving only the number.

Ask: Requested field: pEC50. Item: A041600040 (VHH, Trivalent ISVD construct (two anti-CX3CR1 ISVDs, one anti-albumin ISVD), C-terminal alanine included in the entry; also called 66B02_SO (E1D)-9GS-54A12_SO-9GS-ALB23002-A) DVQLVESGGGSVQPGGSLRLSCAASGSIFSSTAMAWYRQAPGKRRDLVAAINTVGVTKYADSVKGRFTISRDNAKNTVYLQMNSLRPEDTALYYCTSDPRRGWDTRYWGQGTLVTVSSGGGGSGGGSEVQLVESGGGSVQPGGSLRLSCAASGSIFSSTAMAWYRQAPGKQRDLVAVISTVGITKYADSVKGRFTISRDNAKNTVYLQMNSLRPEDTALYYCTSDARRGWDTRYWGQGTLVTVSSGGGGSGGGSEVQLVESGGGVVQPGGSLRLSCAASGFTFRSFGMSWVRQAPGKGPEWVSSISGSGSDTLYADSVKGRFTISRDNSKNTLYLQMNSLRPEDTALYYCTIGGSLSRSSQGTLVTVSSA
Result: 9.85
